# Test method notes: mouse hepatocyte clearance (cryopreserved pooled mouse CD1 hepatocytes)
# Assay type: in vitro ADME
# Assay context: mouse, hepatocytes; 1 μM; 0.5×10^6 cells/mL; 37° C.

- Smiles str: "Nc1n[nH]c2ccc(-c3ccnc4[nH]c(-c5ccnc(OCc6ccccc6)c5)cc34)cc12"
  hepatocyte CLint [µL/min/1e6 cells]: 27
- Smiles str: "Nc1n[nH]c2ccc(-c3ccnc4[nH]c(-c5ccnc(OCc6ccncc6)c5)cc34)cc12"
  hepatocyte CLint [µL/min/1e6 cells]: 11
- Smiles str: "Nc1n[nH]c2ccc(-c3ccnc4[nH]c(-c5cccc(OCc6ccccc6)c5)cc34)cc12"
  hepatocyte CLint [µL/min/1e6 cells]: 38
